system: ssDNA PolyT200; assay: EMSA with ssDNA PolyT200; assay type: binding; settings: different nucleobase ratios (20-100)
observed property: nanostructure formation (EMSA)

[
  {
    "substance": "Glucose-GS-AELAALEUELAALE-(Ahx)2-E (adenine)E (adenine)-(Ahx)2-KLAALKUKLAALKAG-K (glucose) [Glc2-AA-U2]",
    "observed property": "nanostructure formation (EMSA)",
    "value observed": "formed successfully"
  },
  {
    "substance": "Glucose-GS-AELUALEUELAULE-(Ahx)2-E (adenine)E (adenine)-(Ahx)2-KLUALKUKLAULKAG-K (glucose) [Glc2-AA-U6]",
    "observed property": "nanostructure formation (EMSA)",
    "value observed": "formed successfully"
  }
]
